Each entry below carries its recorded pIC50.
- Test system: CEM cells HIV-1 protection, formazan growth assay
- run description: NCI AIDS Antiviral Assay
- condition notes: measured here: growth of uninfected CEM cells
- Protocol: The ability of compounds to protect human CEM cells from HIV-1 infection is measured as a screen for new compounds capable of inhibiting the HIV virus. Five concentrations of drug were tested on uninfected and infected cells and cell growth was measured using a soluble formazan assay. […] Compounds that provided at least 50% protection were retested. Compounds that provided at least 50% protection on retest were listed as moderately active. […]
pIC50: −log10 of the molar value.

- molecule: "CC(=O)OC(C)(C)/C=C/C(=O)[C@](C)(O)[C@H]1[C@H](O)C[C@@]2(C)[C@@H]3CC=C4[C@@H](C[C@H](O)C(=O)C4(C)C)[C@]3(C)C(=O)C[C@]12C"
  value qualifier: "="
  pIC50: 8.02
- molecule: "CC(=O)CC1CCC(=O)/C=C/C(=O)OC(CC(C)=O)CCC(=O)/C=C/C(=O)O1 (centres undefined)"
  value qualifier: "="
  pIC50: 5.72
- molecule: "Cc1cc(NS(=O)(=O)c2ccc(Nc3c4ccccc4nc4c(C(=O)Nc5ccc(S(N)(=O)=O)cc5)cccc34)cc2)no1"
  value qualifier: "="
  pIC50: 4.30
- molecule: "Cc1cc(N=Nc2ccc(Sc3ccc(N=Nc4ccc(O)c(C(=O)O)c4)cc3)cc2)c(N)c(N=Nc2ccc(N=Nc3ccc(S(=O)(=O)O)cc3)cc2)c1N"
  value qualifier: "<"
  pIC50: 4.00
- molecule: "CN(C)CCNC(=O)c1nn(-c2ccccc2)c2c1CSc1ccccc1-2"
  value qualifier: "="
  pIC50: 3.96
- molecule: "C[C@H]1[C@H](N2CCCC2)O[Si](C(C)(C)C)(C(C)(C)C)[C@@H]1C"
  value qualifier: "<"
  pIC50: 3.70
- molecule: "CCOC(=O)/C(Br)=C1\\OC(=O)c2ccccc2-c2ccccc21"
  value qualifier: "<"
  pIC50: 4.71
- molecule: "CCOP(=O)(OCC)/C(C#N)=C/c1ncc[nH]1"
  value qualifier: "<"
  pIC50: 3.70
- molecule: "CC(C)=COS(=O)(=O)C(F)(F)F"
  value qualifier: "="
  pIC50: 3.96
- molecule: "O=C1NC(Cc2ccccc2)C(=O)N2CCCC12 (centres undefined)"
  value qualifier: "<"
  pIC50: 2.99
- molecule: "Cc1ccc2n(c1)cc(-c1ccc(/C=N/NC(=N)N/N=C/c3ccc(-c4cn5cc(C)ccc5[n+]4C)cc3)cc1)[n+]2C"
  value qualifier: "="
  pIC50: 4.31
- molecule: "Clc1ccc(C=Nc2ccc(SSc3ccc(N=Cc4ccc(Cl)cc4)cc3)cc2)cc1"
  value qualifier: "="
  pIC50: 4.65
- molecule: "O=C1CC(C(=O)N2CCCCC2)n2c(=O)n(-c3ccccc3)c(=O)n2C1 (centres undefined)"
  value qualifier: "<"
  pIC50: 3.70
- molecule: "CC1=C(c2ccccc2)CON(c2ccccc2)C1"
  value qualifier: "<"
  pIC50: 4.27
- molecule: "CN1C(=S)C2=C(c3ccccc3)N(C)C(=S)C2=C1c1ccccc1"
  value qualifier: "<"
  pIC50: 3.70
- molecule: "Cc1cn(C(Cc2ccccc2)OCCN2C(=O)c3ccccc3C2=O)c(=O)[nH]c1=O (centres undefined)"
  value qualifier: "<"
  pIC50: 3.70
- molecule: "N#Cc1c(Cl)c2cccnc2n2c1nc1ccccc12"
  value qualifier: "="
  pIC50: 6.47
- molecule: "CC(C)N(CC(OC(=O)OC(C)(C)C)c1cc(OCc2ccccc2)c(OCc2ccccc2)cc1[N+](=O)[O-])C(=O)OC(C)(C)C (centres undefined)"
  value qualifier: "="
  pIC50: 4.52
- molecule: "N#C/C(=C/c1cccnc1)C(=O)c1ccccc1"
  value qualifier: "="
  pIC50: 4.17
